Experiment: compounds raising alpha-dystroglycan glycosylation – uHTS, Pro5-aDG cells, AlphaScreen, primary screen (AID 624168);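 note: Pro5 are CHO cells carrying HIG-tagged alpha-DG that lacks glycosylation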
Study conditions: alpha-DG glycosylation AlphaScreen (IIH6), at 10 µM, 0% Pro5, 100% B10-LARGE cell signal
The whole screen tested about 360,000 compounds, of which about 800 (0.22%) were called active.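 Rule for the calls: active = activation of at least 8% versus controls, or a plate z-score of at least 8; inactive = the rest.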 The full list was thinned out, with actives kept by preference.
Tick one outcome: T (active), F (inactive)

Just curious, what result did COCCn1c(SCC(=O)c2[nH]c(C)c(C(C)=O)c2C)nc2ccccc2c1=O get here?
F

State the result this test recorded for O=C(CN1CCN(Cc2ccccc2)CC1)Nc1ccc(F)c(F)c1 .
F

Name the outcome recorded for CCCCN(CC)C(=O)C1CCCN(S(=O)(=O)c2cccc3nsnc23)C1 (stereo unspecified) in the assay.
F

Recorded test call requested for COc1cc(C(=O)NCCOC(=O)c2cccc(N(C)C)c2)cc(OC)c1OC
F

Write down the call the test reported for this compound. Item: Cc1cccn2c(=O)nc(SCC(=O)NCc3ccccc3Cl)nc12
F

Please indicate how the test categorized Cc1nnc(NC(=O)CCC(=O)N2CCC(C)CC2)s1 .
F

Just curious, what result did OC[C@@H]1CN(Cc2ccc(-c3ccccc3)cc2)C[C@H](n2cnc3c(NC4CCCC4)ncnc32)O1 get here?
T

Kindly provide the recorded test outcome for the following compound: COc1ccc(C23NCCN2C(=O)c2ccccc23)cc1 (stereo unspecified)
F

Kindly provide the recorded test outcome for the following compound: Fc1cccc(Cl)c1COc1ccc(-c2nnco2)cc1
F

Which outcome was assigned to O=C(Nc1cc(S(=O)(=O)Nc2ccc(Cl)cc2)ccc1O)c1ccc(F)cc1F in this test?
F

So what was the verdict on CCOc1ccc(C(=O)Nc2cccc(SC)c2)cc1 in this test?
F
